Conditions: in isopropanol, 252.05 K
TEST READOUT: solubility (mole fraction)

Fill blank: measured solubility (mole fraction) of the compound COC(=O)C(C)(C)N=NC(C)(C)C(=O)OC is ____.
0.0065

====

Settings: in ethanol, 261.85 K
TEST READOUT: solubility (mole fraction)
Just the number, please, no unit after it.

I am curious: what solubility (mole fraction) value has been reported for COC(=O)C(C)(C)N=NC(C)(C)C(=O)OC ?
0.0165

====

Settings: in ethanol, 252.85 K
TEST READOUT: solubility (mole fraction)
Provide a numeric answer; units are not to be included.

Dear colleague, I am looking for the recorded solubility (mole fraction) of the following molecule: COC(=O)C(C)(C)N=NC(C)(C)C(=O)OC
0.0094

====

Details: in ethanol, 258.65 K
TEST READOUT: solubility (mole fraction)
Give the figure only, with no unit attached.

What measured solubility (mole fraction) goes with COC(=O)C(C)(C)N=NC(C)(C)C(=O)OC ?
0.0133

====

Conditions: in acetone, 283.05 K
TEST READOUT: solubility (mole fraction)
Lab note: write the figure by itself, no unit.

Returns the measured solubility (mole fraction) for the input compound. Input: COC(=O)C(C)(C)N=NC(C)(C)C(=O)OC
0.454

====

Conditions: in diethyl ether, 257.95 K
TEST READOUT: solubility (mole fraction)
Write no unit; give the number alone.

Could you tell me which solubility (mole fraction) is on file for COC(=O)C(C)(C)N=NC(C)(C)C(=O)OC ?
0.104

====

Settings: in methanol, 275.85 K
TEST READOUT: solubility (mole fraction)
API note: the answer field is a bare number with no unit suffix.

Please give the measured solubility (mole fraction) for this compound: COC(=O)C(C)(C)N=NC(C)(C)C(=O)OC
0.0722

====

Details: in diethyl ether, 282.85 K
TEST READOUT: solubility (mole fraction)

Would you mind telling me what solubility (mole fraction) value was observed for COC(=O)C(C)(C)N=NC(C)(C)C(=O)OC ?
0.46

====

Conditions: in toluene, 290.95 K
TEST READOUT: solubility (mole fraction)
# print the numeric value only

Item COC(=O)C(C)(C)N=NC(C)(C)C(=O)OC has what recorded solubility (mole fraction)?
0.67

====

Details: in ethanol, 268.55 K
TEST READOUT: solubility (mole fraction)
Please respond with just the number, no unit label.

Requested field: solubility (mole fraction). Item: COC(=O)C(C)(C)N=NC(C)(C)C(=O)OC
0.0344

====

Conditions: in toluene, 256.35 K
TEST READOUT: solubility (mole fraction)
The reply should be a number, written without any unit.

May I ask what solubility (mole fraction) has been recorded for COC(=O)C(C)(C)N=NC(C)(C)C(=O)OC ?
0.119

====

Conditions: in tetrachloromethane, 264.05 K
TEST READOUT: solubility (mole fraction)
Lab note: jot down the number only; don't add units.

Quick check: solubility (mole fraction) of COC(=O)C(C)(C)N=NC(C)(C)C(=O)OC ?
0.182

====

Conditions: in acetone, 264.95 K
TEST READOUT: solubility (mole fraction)
Keep the answer to the number alone.

Given the compound COC(=O)C(C)(C)N=NC(C)(C)C(=O)OC , what is its reported solubility (mole fraction)?
0.171

====

Conditions: in THF, 258.55 K
TEST READOUT: solubility (mole fraction)
Give only the figure.

Look up solubility (mole fraction): COC(=O)C(C)(C)N=NC(C)(C)C(=O)OC
0.156

Attribution: BigSolDB 2.1
